tested on: rice; assay: Test B flood; assay type: in vivo, Oryza sativa; settings: 250 g ai/ha, visual rating on 0 to 100 scale (0 no effect, 100 complete control), 13 to 15 days
ENDPOINT: Plant response rating, Rice

[
  {
    "INPUT SMILES": "CCc1cc(C(=O)NC2CC2)nn1Cc1cc(C(F)(F)F)no1",
    "NUMERIC READOUT": 20
  },
  {
    "INPUT SMILES": "CCCNC(=O)c1cc(OCC)n(Cc2ccnc(OC(F)F)c2)n1",
    "NUMERIC READOUT": 35
  },
  {
    "INPUT SMILES": "CCCNC(=O)c1cc(CC)n(Cc2cc(C(F)(F)C(F)(F)F)nn2C)n1",
    "NUMERIC READOUT": 40
  },
  {
    "INPUT SMILES": "CCCNC(=O)c1cc(CC)n(Cc2ccnc(C(F)(F)F)c2)n1",
    "NUMERIC READOUT": 35
  },
  {
    "INPUT SMILES": "CCONC(=O)c1cc(CC)n(Cc2cc(C(F)(F)F)nn2C(C)C)n1",
    "NUMERIC READOUT": 0
  },
  {
    "INPUT SMILES": "COCc1cc(C(=O)NCC(F)(F)F)nn1Cc1cc(C(F)(F)C(F)(F)F)nn1C",
    "NUMERIC READOUT": 0
  },
  {
    "INPUT SMILES": "CCc1cc(C(=O)NCC(F)(F)F)nn1Cc1ccnc(Br)c1",
    "NUMERIC READOUT": 20
  },
  {
    "INPUT SMILES": "CCOc1cc(C(=O)NCC(F)(F)F)nn1Cc1cc(C(F)(F)F)nn1C",
    "NUMERIC READOUT": 40
  },
  {
    "INPUT SMILES": "CCCNC(=O)c1cc(OCC)n(Cc2ccnc(C(F)(F)F)c2)n1",
    "NUMERIC READOUT": 45
  }
]
